# test_system: Tyramine receptor (TyrR) (Drosophila melanogaster)
# Construct: expressed in transfected cells; host or cells: model cells in culture
# Sequence (P22270 27-601): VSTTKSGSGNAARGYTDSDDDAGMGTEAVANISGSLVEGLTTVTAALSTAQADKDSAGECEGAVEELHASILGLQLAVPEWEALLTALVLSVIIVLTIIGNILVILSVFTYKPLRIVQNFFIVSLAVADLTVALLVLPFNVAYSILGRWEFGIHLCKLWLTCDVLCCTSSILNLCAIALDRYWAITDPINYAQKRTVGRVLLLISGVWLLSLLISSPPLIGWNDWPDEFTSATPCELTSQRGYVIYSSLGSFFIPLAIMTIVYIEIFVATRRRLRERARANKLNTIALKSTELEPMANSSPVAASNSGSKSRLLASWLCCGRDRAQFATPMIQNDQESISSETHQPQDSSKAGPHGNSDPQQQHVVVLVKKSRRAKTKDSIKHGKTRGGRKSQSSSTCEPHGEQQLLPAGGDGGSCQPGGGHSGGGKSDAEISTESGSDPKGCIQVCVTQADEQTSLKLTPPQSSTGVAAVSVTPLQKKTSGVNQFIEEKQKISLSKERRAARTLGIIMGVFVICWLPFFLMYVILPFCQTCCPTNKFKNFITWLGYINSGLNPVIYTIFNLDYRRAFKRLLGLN
# assay_method_text: Intracellular cAMP level in cells expressing TyrR
# Type: cell-based
readout_kind: Affects Intracellular cAMP (Yes or No)

Take a look at these entries with their results.
C=CCc1ccc(O)c(OC)c1 | No
CCCCCCCCCCCCOS(=O)(=O)[O-].[Na+] [sodium lauryl sulfate] | No
Cc1ccc(C(C)C)c(O)c1 | No
OCc1ccccc1 | Yes
C=CC(C)(O)CCC=C(C)C (stereo not drawn) | No

input: Respond only with Affects Intracellular cAMP (Yes or No) recorded for "CC12CCC(CC1)C(C)(C)O2"
output: Yes

---

# System: H. nana
# assay_method_text: Anti-parasitic effect against H. nana in vivo in infected Swiss albino mice (egg count, cure rate);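 note: fecal egg counts per mouse in groups of 15, controls got soybean oil vehicle alone, cure judged 3 days after final dose by egg reduction and no adult intestinal worms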
# Design: species or system Hymenolepsis nana
# condition_context: 100 mg/kg oral daily for 5 days
Listed compounds paired with reported Cure rate (%)
I only need the number, in %, no unit after it.

Take a look at these entries with their results.
Cc1ccc(C(C)C)c(O)c1 | 33.3
Cc1ccc(C(C)C)cc1 | 13.3

input: Respond only with Cure rate (%) recorded for C=CC(C)(O)CCC=C(C)C (stereo not drawn)
output: 23.3
